Data provenance: paper PMC8148468

So I've got a bunch of molecules here, and I need their Max. non-cyt. doses values.
Test system: primary human dermal fibroblasts (HDFs)
Conditions: female, human
One number for each entry, in mM.

Reference set (4 entries):
Cc1ncc(CO)c(CO)c1O [Pyridoxine, reference compound]; 5
Oc1ccc(/C=C/c2cc(O)cc(O)c2)cc1 [Resveratrol, reference compound]; 0.05
c1coc(CNc2ncnc3[nH]cnc23)c1 [Kinetin]; 0.5
NCCS(=O)(=O)O [Taurine]; 150

Shift focus to the following entry.
Enquiry: With primary human dermal fibroblasts (HDFs) as the test system, provide measured Max. non-cyt. doses for this molecule: NC(=O)NC1NC(=O)NC1=O (centres unmarked) [Allantoin, reference compound]
Return: 50

====

Provide the recorded LD50 for the entries that follow.
System: primary human dermal fibroblasts (HDFs)
Conditions: HDFs, WST-1 cell viability test
Answers are plain numbers, in mM.

Examples from the recorded data:
C=C[C@](C)(O)CC[C@@H]1[C@@]2(C)CCCC(C)(C)[C@@H]2CC[C@@]1(C)O [Sclareol]; 0.04
O=C(OC[C@H]1OC(O)[C@@](O)(COC(=O)c2cc(O)c(O)c(O)c2)[C@@H]1O)c1cc(O)c(O)c(O)c1 (stereo partly shown) [Hamamelitannin]; 0.247
NCCC(=O)N[C@@H](Cc1cnc[nH]1)C(=O)O [Carnosine]; 85.46

Moving on to another compound below.
Enquiry: Give LD50 only, for NC(=S)N/N=C/c1ccccc1O [Salicyladehyde thiosemicarbazone] , using primary human dermal fibroblasts (HDFs) data.
Return: 4.175

====

Test system: primary human dermal fibroblasts (HDFs)
Conditions: female, human
Threshold-based label: LD50 under 2 mM gives YES, LD50 not under 2 mM gives NO.

Reference set (3 entries):
Oc1ccc(/C=C/c2cc(O)cc(O)c2)cc1 [Resveratrol, reference compound]; YES
CC(C)(CO)[C@@H](O)C(=O)NCCCO [Dexpanthenol, reference compound]; NO
NCCS(=O)(=O)O; NO

Enquiry: Given the entry COc1cc(C=O)ccc1O , would its reported LD50 be below 2 mM?
Return: NO

Enquiry: Identify whether the compound O=C(O)C1=C[C@@H](O)[C@@H](O)[C@H](O)C1 records LD50 below 2 mM.
Return: NO

Enquiry: Report whether reported LD50 is lower than 2 mM (strictly) for COC1=C(OC)C(=O)C(CCCCCCCCCCO)=C(C)C1=O [Idebenone, reference compound]
Return: YES

Enquiry: Please check: LD50 for O=C(O)c1cc(O)c(O)c(O)c1 , strictly under 2 mM or not?
Return: YES

Enquiry: Hello, is LD50 of the following compound strictly smaller than 2 mM? NC(=O)NC1NC(=O)NC1=O (stereo not drawn) [Allantoin, reference compound]
Return: NO

Enquiry: API: query returns whether the compound falls strictly under 2 mM in LD50. Query: c1coc(CNc2ncnc3[nH]cnc23)c1
Return: YES

Enquiry: Input Cc1ncc(CO)c(CO)c1O [Pyridoxine, reference compound] ; condition: LD50 strictly below 2 mM. Does it hold?
Return: NO

Enquiry: I wonder whether O=C(CCc1ccc(O)cc1)c1c(O)cc(O)cc1O has LD50 below 2 mM. Can you tell?
Return: YES

Enquiry: LD50 strictly < 2 mM for this compound? COc1cc(C(=O)O)cc(OC)c1O
Return: NO

====

Test system: primary human dermal fibroblasts (HDFs)
Settings: HDFs, WST-1 cell viability test, maximum non-cytotoxic dose
Output T for records whose Max. non-cyt. doses is lower than 0.5 mM, F for records at or above 0.5 mM.

COc1cc(-c2coc3cc4c(c(OC)c3c2=O)OCO4)cc(OC)c1OC; T
C=C1CC[C@@H]2[C@](C)(CO)[C@H](O)CC[C@@]2(C)[C@@H]1C/C=C1/C(=O)OC[C@H]1O [Andrographolide]; T
C[C@@H]1O[C@@H](O[C@@H]2[C@@H](O)[C@H](OCCc3ccc(O)c(O)c3)O[C@H](CO)[C@H]2OC(=O)/C=C/c2ccc(O)c(O)c2)[C@H](O)[C@H](O)[C@H]1O [Verbascoside]; T

Enquiry: Given the entry C[N+](C)(C)CC(=O)O , would its reported Max. non-cyt. doses be below 0.5 mM?
Return: F

Enquiry: Quick check: does O=C(O)c1ccccc1O [Salicylic acid, reference compound] have Max. non-cyt. doses under 0.5 mM?
Return: F

Enquiry: Confirm or reject: Max. non-cyt. doses of C=C[C@](C)(O)CC[C@@H]1[C@@]2(C)CCCC(C)(C)[C@@H]2CC[C@@]1(C)O lies strictly below 0.5 mM
Return: T

====

Test system: primary human dermal fibroblasts (HDFs)
Conditions: HDFs, WST-1 cell viability test, maximum non-cytotoxic dose
Exercise: for every item that follows, state its recorded Max. non-cyt. doses.
Give bare numbers, in mM.

For every record below, what is its Max. non-cyt. doses?
1. C/C(=C\CNc1ncnc2[nH]cnc12)CO
2. O=Cc1ccc(O)c(O)c1 [3,4-dihydroxybenzaldehyde]
3. O=C(OC[C@H]1OC(O)[C@@](O)(COC(=O)c2cc(O)c(O)c(O)c2)[C@@H]1O)c1cc(O)c(O)c(O)c1 (stereo partly shown)
4. NCCC(=O)N[C@@H](Cc1cnc[nH]1)C(=O)O

Return:
1. 1
2. 0.1
3. 0.1
4. 25

====

Tested on: primary human dermal fibroblasts (HDFs)
Details: female, human
I would appreciate it if you labelled entries Met when Max. non-cyt. doses is 2 mM or higher, otherwise Not met.

Worked cases, answers included:
O=C(O)C1=C[C@@H](O)[C@@H](O)[C@H](O)C1; Met
COC1=C(OC)C(=O)C(CCCCCCCCCCO)=C(C)C1=O [Idebenone, reference compound]; Not met
C=C[C@@H]1C2=CCOC(=O)C2=CO[C@H]1O[C@@H]1O[C@H](CO)[C@@H](O)[C@H](O)[C@H]1O; Met
CC(C)(CO)[C@@H](O)C(=O)NCCCO [Dexpanthenol, reference compound]; Met
O=C(O)c1cc(O)c(O)c(O)c1; Not met
COc1cc(C=O)ccc1O; Not met

Enquiry: Check the entry O=C(CCc1ccc(O)cc1)c1c(O)cc(O)cc1O : does Max. non-cyt. doses equal or exceed 2 mM?
Return: Not met

Enquiry: Threshold query (Max. non-cyt. doses >= 2 mM) on COc1cc(C(=O)O)cc(OC)c1O
Return: Not met

Enquiry: Does the reported Max. non-cyt. doses for O=c1c(O)c(-c2ccc(O)c(O)c2)oc2cc(O)cc(O)c12 [Quercetin, reference compound] fall at or above the 2 mM mark?
Return: Not met

====

Field: LD50. Provide a value for each of the molecules that follow.
System: primary human dermal fibroblasts (HDFs)
Conditions: HDFs, WST-1 cell viability test
Answers are plain numbers, in mM.

Solved entries (count: 3):
O=c1c(O)c(-c2ccc(O)c(O)c2)oc2cc(O)cc(O)c12 [Quercetin, reference compound]; 0.604
O=Cc1ccc(O)c(O)c1 [3,4-dihydroxybenzaldehyde]; 1.08
COc1cc(/C=C/C(=O)O)ccc1O; 16.5

Attention now shifts to the item below.
Enquiry: Report LD50, nothing else, for this molecule: C/C=C/C(=O)C1=C(C)C=CCC1(C)C
Return: 0.121

====

System: primary human dermal fibroblasts (HDFs)
Settings: HDFs, WST-1 cell viability test
Provide the recorded LD50 for the entries that follow.
Answers are plain numbers, in mM.

C[N+](C)(C)CC(=O)O [Betaine]; 507.81
C=C[C@@H]1C2=CCOC(=O)C2=CO[C@H]1O[C@@H]1O[C@H](CO)[C@@H](O)[C@H](O)[C@H]1O [Gentiopicrin]; 13.825
Oc1ccc2c(c1)OCO2 [Sesamol]; 4.358

Return reported LD50 values for all items listed beneath this line.
1. CC1=NCC[C@@H](C(=O)O)N1 [Ectoine]
2. C=C1CC[C@@H]2[C@](C)(CO)[C@H](O)CC[C@@]2(C)[C@@H]1C/C=C1/C(=O)OC[C@H]1O [Andrographolide]
3. C/C(=C\CNc1ncnc2[nH]cnc12)CO [Zeatin]
4. COc1cc(-c2coc3cc4c(c(OC)c3c2=O)OCO4)cc(OC)c1OC [Irisflorentin]

Return:
1. 359.12
2. 0.124
3. 2.462
4. 0.049

Enquiry: Name the value of LD50 reported for C[C@@H]1O[C@@H](O[C@@H]2[C@@H](O)[C@H](OCCc3ccc(O)c(O)c3)O[C@H](CO)[C@H]2OC(=O)/C=C/c2ccc(O)c(O)c2)[C@H](O)[C@H](O)[C@H]1O [Verbascoside] when tested on primary human dermal fibroblasts (HDFs).
Return: 0.122

====

So I've got a bunch of molecules here, and I need their Max. non-cyt. doses values.
System: primary human dermal fibroblasts (HDFs)
One number for each entry, in mM.

O=C(O)CCCC[C@@H]1CCSS1 (racemic) [Lipoic acid]; 1

For every item in the list below, what is its measured Max. non-cyt. doses?
1. C/C=C/C(=O)C1=C(C)C=CCC1(C)C [Damascenone]
2. CC1=NCC[C@@H](C(=O)O)N1 [Ectoine]
3. COc1cc(/C=C/C(=O)O)ccc1O [Ferulic acid]

Return:
1. 0.05
2. 300
3. 7.5
